# experiment-description: collision cross section in nitrogen (drift tube, single-field); higher = larger gas-phase ion size;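 also: chemical standards at 10 µM analysed by drift tube IMS-QTOF MS in about 3.95 torr nitrogen, mean of duplicate injections differing ≤1%, mass error below 10 ppm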
# setup-conditions: ion type: [M-H]; ion source: ESI; ion mode: Negative
Structures can show the parent of a compound that is named as a salt.
measured-metric: collision cross section in nitrogen (Å²)

compound	collision cross section in nitrogen [Å²]
CC1(C)[C@@H](O[C@H]2O[C@H](C(=O)O)[C@@H](O)[C@H](O)[C@H]2O[C@@H]2O[C@H](C(=O)O)[C@@H](O)[C@H](O)[C@H]2O)CC[C@]2(C)[C@H]3C(=O)C=C4[C@@H]5C[C@@](C)(C(=O)O)CC[C@]5(C)CC[C@@]4(C)[C@]3(C)CC[C@@H]12 [Ammonium glycyrrhizinate trihydrate]	282.6
CCCCCCCCc1ccc(Nc2ccc(CCCCCCCC)cc2)cc1	221
CCCCCCCCCCCCc1ccccc1S(=O)(=O)O [Sodium dodecylbenzenesulfonate]	186.3
CCCCCCCCCCCCCCOS(=O)(=O)O [Sodium myristyl sulfate]	173.4
C[C@H]1C[C@H]2[C@@H]3CCC4=CC(=O)C=C[C@]4(C)[C@@]3(F)[C@@H](O)C[C@]2(C)[C@@]1(O)C(=O)COP(=O)(O)O [Betamethasone 21-phosphate disodium]	199.8
CC(C)c1nnc2ccc(-c3ocnc3-c3cc(F)ccc3F)cn12	178.7
O=C(O)c1cc2ccccc2cc1O [3-Hydroxy-2-naphthoic acid]	135.6
O=S(=O)(c1ccc2c(c1)CCCN2)N1CCC[C@@H]2CCCC[C@H]21	179.6

###

# experiment-description: collision cross section in nitrogen (drift tube, single-field); higher = larger gas-phase ion size
# setup-conditions: ion type: [M+Na]; ion source: ESI; ion mode: Positive
measured-metric: collision cross section in nitrogen (Å²)

[I] Nc1ccc(S(=O)(=O)Nc2nccs2)cc1 [Sulfathiazole sodium]
[II] CC(C)(C)c1cc(CCC(=O)NCCCCCCNC(=O)CCc2cc(C(C)(C)C)c(O)c(C(C)(C)C)c2)cc(C(C)(C)C)c1O [Antioxidant 1098]
Inquiry: Given the two records I and II , choose the one whose collision cross section in nitrogen value is lower. Field: selected label. Fill in the label of the entry you choose.
Reply text: I
(I: 167.2 Å², II: 259.8 Å²)

###

# experiment-description: collision cross section in nitrogen (drift tube, single-field); higher = larger gas-phase ion size
# setup-conditions: ion type: [M-H]; ion source: ESI; ion mode: Negative
Structures can show the parent of a compound that is named as a salt.
measured-metric: collision cross section in nitrogen (Å²)

// solved cases for collision cross section in nitrogen follow
compound	result-unit	collision cross section in nitrogen
CCN(CC)c1c([N+](=O)[O-])cc(C(F)(F)F)c(N)c1[N+](=O)[O-]	Å²	159.7
CCC(=C(c1ccc(O)cc1)c1ccc(OCCN(C)C)cc1)c1ccccc1 [4-Hydroxytamoxifen]	Å²	214.6
O=C1C=CC(=O)N1c1cccc(N2C(=O)C=CC2=O)c1 [N,N'-1,3-Phenylenedimaleimide]	Å²	155
O=C(O)c1ccc2c(c1)C(=O)OC2=O [Trimellitic anhydride]	Å²	146.5
Oc1ccc(Nc2ccccc2)cc1	Å²	147.4
CCCCCCCCOC(=O)c1cc(O)c(O)c(O)c1 [Octyl gallate]	Å²	171.5
C(=CNc1ccccc1)C=Nc1ccccc1 [N-(3-Anilino-2-propenylidene)aniline monohydrochloride]	Å²	158.6
Nc1ccc(C(=O)OCCCOC(=O)c2ccc(N)cc2)cc1 [1,3-Propanediyl bis(p-aminobenzoate)]	Å²	166.6
Nc1c(Br)cc([N+](=O)[O-])cc1Br	Å²	134.9
CCCCCCCCc1ccc(O)cc1	Å²	159.9

[P] O=C(Nc1ccc([N+](=O)[O-])cc1Cl)c1cc(Cl)ccc1O [5-Chloro-N-(2-chloro-4-nitrophenyl)-2-hydroxybenzamide]
[Q] Cc1cc(CCC(=O)OCC(C)(C)C2OCC3(CO2)COC(C(C)(C)COC(=O)CCc2cc(C)c(O)c(C(C)(C)C)c2)OC3)cc(C(C)(C)C)c1O (configuration not stated)
Inquiry: Given the two records P and Q , choose the one whose collision cross section in nitrogen value is lower. Field: selected label. Fill in the label of the entry you choose.
Reply text: P
(P: 164.6 Å², Q: 268.7 Å²)
